EXPERIMENTAL_SYSTEM: Recombinant TDO (Homo sapiens, UniProt P48775)
Construct: Recombinant TDO or IDO was diluted to 16 ng/uL and 50 uL loaded into wells of a 96-well plate
Sequence (P48775 whole entry): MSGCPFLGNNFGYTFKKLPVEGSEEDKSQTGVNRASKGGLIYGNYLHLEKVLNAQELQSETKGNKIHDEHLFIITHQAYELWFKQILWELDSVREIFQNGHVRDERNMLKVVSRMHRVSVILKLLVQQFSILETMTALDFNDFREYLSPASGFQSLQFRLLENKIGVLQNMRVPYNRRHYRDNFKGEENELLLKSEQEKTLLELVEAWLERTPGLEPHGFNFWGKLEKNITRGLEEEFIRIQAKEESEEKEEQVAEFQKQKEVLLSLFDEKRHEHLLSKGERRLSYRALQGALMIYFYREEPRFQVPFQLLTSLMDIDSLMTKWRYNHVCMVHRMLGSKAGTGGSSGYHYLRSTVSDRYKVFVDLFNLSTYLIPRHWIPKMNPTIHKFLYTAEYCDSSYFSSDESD
TEST_DESCRIPTION: TDO Inhibition Assay (recombinant enzyme, absorbance at 321 nm)
Type: biochemical
MEASURED_ATTRIBUTE: IC50 (µM)
# unit: µM | format: bare number

Request: Output IC50 of Clc1ccc(C(Cn2ccnc2)OCc2c(Cl)cccc2Cl)c(Cl)c1 (stereo not shown) [Isoconazole]
Response: 4.12

###

Tested on: SCC4 (human squamous cell carcinoma)
TEST_DESCRIPTION: Cancer cell cytotoxicity, CellTiter-Glo Luminescent Cell Viability Assay
CONDITIONS: SCC-4, read-out: IC50 (μM) cancer cell cytotoxicity
Would you mind telling me the reported IC50 of each entry?
State the result as a value with its unit after it.

Request: Give the observed IC50 of C=C(c1ccccc1OCc1cccc(Cl)c1)n1ccnc1 [Cloconazole] for SCC4 (human squamous cell carcinoma).
Response: 46.2 µM

Request: Look up SCC4 (human squamous cell carcinoma) data: IC50 of Clc1ccc(C(Cn2ccnc2)OCc2ccc(Sc3ccccc3)cc2)c(Cl)c1 (stereo not shown) [Fenticonazole] , then report it.
Response: 78.8 µM

Request: Under SCC4 (human squamous cell carcinoma), report IC50 for Clc1ccc(C(Cn2ccnc2)OCc2ccsc2Cl)c(Cl)c1 (stereo not shown) [Tioconazole]
Response: 28.2 µM

Request: Give SCC4 (human squamous cell carcinoma) IC50 for the following compound: Clc1ccc(C(Cn2ccnc2)OCc2c(Cl)cccc2Cl)c(Cl)c1 (stereo not shown) [Isoconazole]
Response: 83.8 µM

###

Give measured IC50 for each item. Keep answers brief.
Tested on: CT26 (murine colon)
TEST_DESCRIPTION: Cancer cell cytotoxicity, CellTiter-Glo Luminescent Cell Viability Assay
CONDITIONS: Mus musculus, CT26, read-out: IC50 (μM) cancer cell cytotoxicity
Remember to put the unit after the number in your answer.

Request: Please give measured IC50 of the following entry: "C=C(c1ccccc1OCc1cccc(Cl)c1)n1ccnc1"
Response: 8.06 µM

Request: Return IC50 (reported value) for this compound: Clc1ccc(C(Cn2ccnc2)OCc2csc3c(Cl)cccc23)c(Cl)c1 (stereo not drawn)
Response: 10.9 µM

Request: Recall and state the measured IC50 for Clc1ccc(C(Cn2ccnc2)OCc2c(Cl)cccc2Cl)c(Cl)c1 (stereo not drawn) .
Response: 14.8 µM

Request: Specify measured IC50 for Clc1ccc(C(Cn2ccnc2)OCc2ccsc2Cl)c(Cl)c1 (stereo not drawn) .
Response: 14 µM

Request: Supply recorded IC50 for "NS(=O)(=O)NCCNc1nonc1C(=NO)Nc1ccc(F)c(Br)c1" here.
Response: 69.9 µM

Request: For the compound Clc1ccc(C(Cn2ccnc2)OCc2ccc(Sc3ccccc3)cc2)c(Cl)c1 (stereo not drawn) , give its reported IC50.
Response: 7.6 µM

###

EXPERIMENTAL_SYSTEM: Recombinant TDO (Homo sapiens, UniProt P48775)
Construct: Recombinant TDO or IDO was diluted to 16 ng/uL and 50 uL loaded into wells of a 96-well plate
TEST_DESCRIPTION: TDO Inhibition Assay (recombinant enzyme, absorbance at 321 nm)
Format: biochemical
CONDITIONS: 1 μM test compound; remaining enzyme activity; read-out: TDO Inhibition Assay Screening (Activity, %) 1 μM
Provide the reported activity at 1 µM of each item.
Please respond with the number in % and leave the unit unwritten.

Request: // output activity at 1 µM; input Clc1ccc(COC(Cn2ccnc2)c2ccc(Cl)cc2Cl)cc1 (stereo not shown) ; system Recombinant TDO (Homo sapiens, UniProt P48775)
Response: 80

Request: Fill: activity at 1 µM (Recombinant TDO (Homo sapiens, UniProt P48775)) for this compound Clc1ccc(C(Cn2ccnc2)OCc2c(Cl)cccc2Cl)c(Cl)c1 (stereo not shown)
Response: 58

Request: Write down measured activity at 1 µM (Recombinant TDO (Homo sapiens, UniProt P48775)) for this compound. Clc1ccc(C(Cn2ccnc2)OCc2csc3c(Cl)cccc23)c(Cl)c1 (stereo not shown)
Response: 74

Request: Give Recombinant TDO (Homo sapiens, UniProt P48775) activity at 1 µM for the following compound: CCC(C)n1ncn(-c2ccc(N3CCN(c4ccc(OCC5COC(Cn6cncn6)(c6ccc(Cl)cc6Cl)O5)cc4)CC3)cc2)c1=O (stereo not shown)
Response: 93

Request: Fetch value of activity at 1 µM on Recombinant TDO (Homo sapiens, UniProt P48775) for Clc1ccc(C(Cn2ccnc2)OCc2ccc(Sc3ccccc3)cc2)c(Cl)c1 (stereo not shown) .
Response: 89

Request: State recorded activity at 1 µM with Recombinant TDO (Homo sapiens, UniProt P48775), entry Clc1ccc(C(Cn2ccnc2)OCc2ccsc2Cl)c(Cl)c1 (stereo not shown) , no comment.
Response: 83

Request: Jot down activity at 1 µM (Recombinant TDO (Homo sapiens, UniProt P48775)) of Clc1ccc(COC(Cn2ccnc2)c2ccc(Cl)cc2Cl)c(Cl)c1 (stereo not shown) .
Response: 74

Request: Enter recorded activity at 1 µM with Recombinant TDO (Homo sapiens, UniProt P48775) for "O=C(O)c1ccc(-n2nc(-c3ccccc3O)nc2-c2ccccc2O)cc1" here.
Response: 107

Request: # assay system Recombinant TDO (Homo sapiens, UniProt P48775): give activity at 1 µM of Clc1cccc(C(c2ccc3[nH]cnc3c2)n2ccnc2)c1 (stereo not shown)
Response: 89

Request: Give activity at 1 µM for this entry on Recombinant TDO (Homo sapiens, UniProt P48775): O=C(Nc1ccc([N+](=O)[O-])cc1Cl)c1cc(Cl)ccc1O [Niclosamide]
Response: 82
